target: Chk2 (Homo sapiens); construct: GST; assay: In vitro kinase assay with recombinant Chk2 (MBP phosphorylation, [γ-33P]ATP); settings: recombinant human GST-Chk2 10 nM, 25 μM MBP, 100 μM ATP, 30 min at 24° C.; read-out: The enzymatic IC50 values of compounds against Chk2
Sequence (O96017 whole entry): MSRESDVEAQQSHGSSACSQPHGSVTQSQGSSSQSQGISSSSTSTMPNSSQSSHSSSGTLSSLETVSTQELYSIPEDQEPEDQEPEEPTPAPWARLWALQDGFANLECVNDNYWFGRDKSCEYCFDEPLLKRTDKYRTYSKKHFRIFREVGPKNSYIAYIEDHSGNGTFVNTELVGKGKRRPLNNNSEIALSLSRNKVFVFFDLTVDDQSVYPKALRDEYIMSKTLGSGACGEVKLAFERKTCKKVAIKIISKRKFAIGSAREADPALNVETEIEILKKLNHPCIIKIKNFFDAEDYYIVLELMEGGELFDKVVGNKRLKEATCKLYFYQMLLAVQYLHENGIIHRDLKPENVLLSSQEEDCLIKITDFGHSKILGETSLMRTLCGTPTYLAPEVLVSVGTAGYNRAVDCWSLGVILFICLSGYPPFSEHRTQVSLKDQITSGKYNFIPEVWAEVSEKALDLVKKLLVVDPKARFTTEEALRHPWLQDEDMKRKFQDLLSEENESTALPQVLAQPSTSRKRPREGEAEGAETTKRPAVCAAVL
pIC50: −log10 of the molar value.
Readout kind: pIC50

Reference set (2 entries):
| Smiles code | System name | pIC50 |
| --- | --- | --- |
| N=C(NCCCCO)c1c(O)nsc1Nc1ccc(Nc2ccccc2)cc1 | Chk2 (Homo sapiens) | 5.70 to 6.00 |
| CC(C)NC(=N)c1c(O)nsc1Nc1ccc(Nc2ccc(Br)cc2)cc1 | Chk2 (Homo sapiens) | 6.30 to 9.00 |

Could you now consider this next compound?
Ask: For the compound `N=C(NCCO)c1c(O)nsc1Nc1ccc(Nc2ccc(Br)cc2)cc1` , report pIC50.
Result: 6.30 to 9.00
